Taken from ChEMBL document CHEMBL1681782.

# TEST METHOD NOTES: Antiinflammatory activity in human neutrophils assessed as inhibition of fMLP/CB-induced superoxide anion generation after 5 mins
# Format: functional, cell-based
# EXPERIMENTAL CONTEXT: Neutrophil
MEASURE: IC50 (µg/mL)
One number for each entry, in µg/mL.

>>> value_observed("O=c1c(-c2ccc(O)cc2)coc2cc(O)cc(O)c12")
0.54

Q: Consider the compound COc1cc(O)cc2c1cc([N+](=O)[O-])c1c(C(=O)O)cc3c(c12)OCO3 and give its recorded IC50.
Result: 5.78

###

For each of the compounds below, state its IC50.
# TEST METHOD NOTES: Antiinflammatory activity in human neutrophils assessed as inhibition of fMLP/CB-induced elastase release after 5 mins
# Assay type: functional, cell-based
# EXPERIMENTAL CONTEXT: Neutrophil

Need IC50 for each of these compounds.
1. COC(=O)c1cc2c(c3c1c([N+](=O)[O-])cc1c(OC)cccc13)OCO2
2. O=c1c(-c2ccc(O)cc2)coc2cc(O)cc(O)c12 [GENISTEIN]
3. COc1cc(O)cc2c1cc([N+](=O)[O-])c1c(C(=O)O)cc3c(c12)OCO3 [ARISTOLOCHIC D]
4. COc1cccc2c1cc([N+](=O)[O-])c1c(C(=O)O)cc3c(c12)OCO3 [ARISTOLOCHIC ACID]
5. COc1cccc2c1ccc1c(C(N)=O)cc3c(c12)OCO3 [ARISTOLAMIDE]

Result:
1. > 10 µg/mL
2. 6.99 µg/mL
3. 8.49 µg/mL
4. > 10 µg/mL
5. > 10 µg/mL

Need IC50 for each of these compounds.
1. NC(=O)c1cc2c(c3c1ccc1ccccc13)OCO2 [ARISTOLAMIDE II]
2. COC(=O)c1cc2c(c3c1ccc1c(OC)cc(OC)cc13)OCO2 [ARISTOLIC ACID METHYL ESTER]
3. COC(=O)c1cc2c(c3c1ccc1c(OC)cccc13)OCO2 [METHYL ARISTOLATE]

Result:
1: 4.11 µg/mL; 2: > 10 µg/mL; 3: > 10 µg/mL

Need IC50 for each of these compounds.
1. O=C1Nc2cc3ccc(O)cc3c3c4c(cc1c23)OCO4
2. O=C(O)c1cc2c(c3c1c([N+](=O)[O-])cc1ccc(O)cc13)OCO2 [ARISTOLOCHIC ACID C]

Result:
["0.2 µg/mL", "> 10 µg/mL"]
